- assaySystem: human CD33 H206A (human, UniProt P20138 18-364)
- Sequence (P20138 18-364 H206A limits assumed): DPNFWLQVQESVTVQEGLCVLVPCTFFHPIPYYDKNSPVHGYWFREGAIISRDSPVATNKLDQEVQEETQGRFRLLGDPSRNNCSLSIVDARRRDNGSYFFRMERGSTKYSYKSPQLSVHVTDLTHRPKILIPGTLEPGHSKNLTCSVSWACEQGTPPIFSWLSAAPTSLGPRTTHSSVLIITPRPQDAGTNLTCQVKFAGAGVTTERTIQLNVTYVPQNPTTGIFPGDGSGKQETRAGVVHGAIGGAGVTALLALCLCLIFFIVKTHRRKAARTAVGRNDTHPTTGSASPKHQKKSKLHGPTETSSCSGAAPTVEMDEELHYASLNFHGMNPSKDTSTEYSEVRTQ
- testDetails: alanine scan, flow cytometry, HEK293-T;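 also: antibody binding to each alanine-substituted CD33 mutant expressed transiently in HEK293-T, read as fluorescence minus background, mean of duplicates, relative to wild-type CD33 set as 100%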
valueKind: Mean % WT Binding (%)
Give a bare numeral; the unit % is implied.

Known results for binders:
{"binder": "Refmab #3 (antibody, V domains shown, In the alanine scan antibodies were used as IgG or Fab) VH: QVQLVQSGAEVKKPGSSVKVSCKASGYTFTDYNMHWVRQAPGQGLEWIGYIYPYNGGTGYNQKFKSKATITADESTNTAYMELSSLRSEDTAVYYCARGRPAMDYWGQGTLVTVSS VL: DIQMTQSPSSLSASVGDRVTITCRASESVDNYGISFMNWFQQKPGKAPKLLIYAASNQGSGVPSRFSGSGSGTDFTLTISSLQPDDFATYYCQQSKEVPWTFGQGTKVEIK", "Mean % WT Binding, %": 97.3}
{"binder": "Refmab #2 (antibody, V domains shown, In the alanine scan antibodies were used as IgG or Fab) VH: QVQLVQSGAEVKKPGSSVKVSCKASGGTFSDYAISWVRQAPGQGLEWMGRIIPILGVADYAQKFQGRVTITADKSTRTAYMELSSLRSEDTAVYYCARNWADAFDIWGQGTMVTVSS VL: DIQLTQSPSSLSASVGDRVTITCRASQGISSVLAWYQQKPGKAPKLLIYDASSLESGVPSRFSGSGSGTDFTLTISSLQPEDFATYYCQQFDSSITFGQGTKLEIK", "Mean % WT Binding, %": 110}
{"binder": "Refmab #4 (antibody, V domains shown, In the alanine scan antibodies were used as IgG or Fab) VH: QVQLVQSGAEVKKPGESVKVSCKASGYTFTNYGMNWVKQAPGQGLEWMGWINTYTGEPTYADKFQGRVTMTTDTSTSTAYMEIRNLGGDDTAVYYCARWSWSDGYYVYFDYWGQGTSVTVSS VL: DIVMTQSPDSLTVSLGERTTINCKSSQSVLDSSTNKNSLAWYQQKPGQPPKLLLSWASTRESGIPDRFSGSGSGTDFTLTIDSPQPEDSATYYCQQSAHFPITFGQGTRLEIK", "Mean % WT Binding, %": 97.7}

Shifting focus to the binder that follows.
Look up Mean % WT Binding for this binder: Refmab #1 (antibody, V domains shown, In the alanine scan antibodies were used as IgG or Fab; also called hP67.6) VH: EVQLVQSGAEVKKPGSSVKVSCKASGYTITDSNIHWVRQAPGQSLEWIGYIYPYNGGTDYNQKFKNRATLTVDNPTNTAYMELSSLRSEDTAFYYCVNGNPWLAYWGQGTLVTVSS VL: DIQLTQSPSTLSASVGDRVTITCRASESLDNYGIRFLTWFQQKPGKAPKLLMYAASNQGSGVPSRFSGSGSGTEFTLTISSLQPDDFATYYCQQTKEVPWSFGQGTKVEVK
98.8
